# Tested on: MCF-7 cells
# Assay Protocol: 3D cell culture on matrigel (spheroid size), MCF-7
# Format: cell-based, human
# Assay Conditions: 10^−7 M, matrigel spheroids; 100% control cells
Parameter Measured: Cell proliferation percentage MCF-7 3D

Record excerpt, results attached:
C=C1/C(=C\C=C(/CCCC)c2cccc(CCCCCC(C)(C)O)c2)C[C@@H](O)C[C@@H]1O    84%
C=C1/C(=C\C=C(/CCCCCC)c2cccc(CCCCCC(C)(C)O)c2)C[C@@H](O)C[C@@H]1O    79%
C=C1/C(=C\C=C(/CCC)c2cccc(CCCCCC(C)(C)O)c2)C[C@@H](O)C[C@@H]1O    74%
C=C1/C(=C\C=C(/CC)c2cccc(CCCCCC(C)(C)O)c2)C[C@@H](O)C[C@@H]1O [PG-136p]    69%

--- query ---
Observed Cell proliferation percentage MCF-7 3D on MCF-7 cells for C=C1/C(=C\C=C(/CCCCCCC)c2cccc(CCCCCC(C)(C)O)c2)C[C@@H](O)C[C@@H]1O , please.
55%
